Test system: 233499-124-R-J3-PDC complex spheroid viability
assay.comment: Anticancer human tumor 233499-124-R-J3-PDC patient-derived colon adenocarcinoma cell line growth inhibition [CLK]; active = viability on the fitted dose curve at most 10% of control; inactive = the rest
assay.setup: second compound 0.316 µM; first compound 10 µM
Labels: y for active, n for inactive

molecule	qualitative.label
COc1cccc2c1C(=O)c1c(O)c3c(c(O)c1C2=O)CC(O)(C(=O)CO)CC3OC1CC(N)C(O)C(C)O1 (configuration not stated) + CN1CCN(c2cc(C(=O)Nc3cc4cc(-c5cnn(C)c5)ccc4cn3)ccn2)CC1	y
COc1ccc([C@@H](O)c2cc(-c3ncnc4cc(N5CCOCC5)ccc34)c(F)cc2Cl)nn1 + CN1CCN(c2cc(C(=O)Nc3cc4cc(-c5cnn(C)c5)ccc4cn3)ccn2)CC1	n
O=c1[nH]cc(F)c(=O)[nH]1 + CNC(=O)c1ccc(Nc2nc(OC3CCCC3)c3c(-c4ccc5nc(C)oc5c4)c[nH]c3n2)c(OC)c1	n
CC1COCCN1c1cc(C2(S(C)(=N)=O)CC2)nc(-c2ccnc3[nH]ccc23)n1 (configuration not stated) + CNC(=O)c1ccc(Nc2nc(OC3CCCC3)c3c(-c4ccc5nc(C)oc5c4)c[nH]c3n2)c(OC)c1	n
Nc1ccccc1NC(=O)c1ccc(CNC(=O)OCc2cccnc2)cc1 + CNC(=O)c1ccc(Nc2nc(OC3CCCC3)c3c(-c4ccc5nc(C)oc5c4)c[nH]c3n2)c(OC)c1	y
COC1C=CCC(C)C(C)S(=O)(=O)NC(=O)c2ccc3c(c2)N(CC2CCC21)CC1(CCCc2cc(Cl)ccc21)CO3 (configuration not stated) + CN1CCN(c2cc(C(=O)Nc3cc4cc(-c5cnn(C)c5)ccc4cn3)ccn2)CC1	n
C#Cc1c(F)ccc2cc(O)cc(-c3ncc4c(N5CC6CCC(C5)N6)nc(OCC56CCCN5CC(F)C6)nc4c3F)c12 (configuration not stated) + CN1CCN(c2cc(C(=O)Nc3cc4cc(-c5cnn(C)c5)ccc4cn3)ccn2)CC1	n

###

System: 233499-124-R-J3-PDC complex spheroid viability
assay.comment: Anticancer human tumor 233499-124-R-J3-PDC cell line growth inhibition [CLK];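 note: spheroids exposed to the drug combinations for seven days; percent viability relative to DMSO vehicle control wells taken as 100%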
assay.setup: second compound 0.1 µM; first compound 0.1 µM; hits give low values
Excerpt: A high-throughput screen of multi-cell type tumor spheroids was designed to identify active combinations of […] and targeted small molecules. Complex spheroids include a stromal component modeled by human endothelial cells (HUVEC) and fibroblasts modeled by human mesenchymal stem cells (MSCs). […] Compounds. […] If the clinical Cmax for an agent had not been determined, the highest concentration tested was 10 microM. […]

compound	viability, T/C / %
CC(Nc1ccc2c(c1)OCCn1cc(N3C(=O)OCC3C(F)F)nc1-2)C(N)=O (stereo not given) + CNC(=O)c1ccc(Nc2nc(OC3CCCC3)c3c(-c4ccc5nc(C)oc5c4)c[nH]c3n2)c(OC)c1	75.1
O=c1[nH]cc(F)c(=O)[nH]1 + CN1CCN(c2cc(C(=O)Nc3cc4cc(-c5cnn(C)c5)ccc4cn3)ccn2)CC1	100
CC1(C)CCC(CN2CCN(c3ccc(C(=O)NS(=O)(=O)c4ccc(NCC5CCOCC5)c([N+](=O)[O-])c4)c(Oc4cnc5[nH]ccc5c4)c3)CC2)=C(c2ccc(Cl)cc2)C1 + CN1CCN(c2cc(C(=O)Nc3cc4cc(-c5cnn(C)c5)ccc4cn3)ccn2)CC1	109
CCN1CCN(Cc2ccc(Nc3ncc(F)c(-c4cc(F)c5nc(C)n(C(C)C)c5c4)n3)nc2)CC1 + CN1CCN(c2cc(C(=O)Nc3cc4cc(-c5cnn(C)c5)ccc4cn3)ccn2)CC1	90.5
C=C(F)C(=O)N1CCN(c2nc(OCC3CCCN3C)nc3c2CCN(c2cccc4cccc(Cl)c24)C3)CC1CC#N (stereo not given) + CNC(=O)c1ccc(Nc2nc(OC3CCCC3)c3c(-c4ccc5nc(C)oc5c4)c[nH]c3n2)c(OC)c1	73.2
